Where do the numbers come from? From PubChem BioAssay (NCI).

Assay: NCI Yeast Anticancer Drug Screen. Data for the sgs1 mgt1 strain (AID 161);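 note: 0% = growth of cultures given vehicle only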
Details: S. cerevisiae sgs1 mgt1 strain, at 5.0 µM (retest, dose inferred, filed as 0.5)
This is part of a sample that, as a whole, favours compounds with a hit. Of some 79,000 tested, about 15% had one in any assay. Activity calls are given as the source filed them. Cut-off read from the data, not from the text of the source: active = growth inhibition above about 70%; inactive = the rest.
A correct response names exactly one class from class 1 = active, class 0 = inactive

# count of solved cases: 2
molecule=O=[N+]([O-])c1ccc(-n2ncc3cccnc32)c([N+](=O)[O-])c1 qualitative_label="class 0"
molecule=Oc1c(Br)cc(Cl)cc1C(c1cc(Cl)cc(Br)c1O)C(Cl)(Cl)Cl qualitative_label="class 0"

Please look at the following molecule next.
// query Fill in: this test's call for O=C1C=CC(=O)N1C1CCCCC1 is ___
// result class 1

* * *

Field: growth inhibition. Provide a value for each of the molecules that follow.
Assay: NCI Yeast Anticancer Drug Screen. Data for the bub3 strain (AID 167)
Details: S. cerevisiae bub3 mutant strain, at 5.0 µM (retest, dose inferred, filed as 0.5), hits give high values
Compounds without any hit were thinned out: in the full panel of roughly 79,000, 15% have a hit.
Answers are plain numbers, in %.

Look over these answered cases.
molecule=CCN(CC)CCOc1ccc(/C=C/c2ccccc2)cc1 result_type="growth inhibition" experimental_value=6
molecule=O=S(=O)(Nc1ccnn1-c1ccccc1)c1ccc(N=Cc2c3ccccc3nc3cc(Cl)ccc23)cc1 result_type="growth inhibition" experimental_value=17
molecule=O=C1C=CC(=O)C(Sc2ccccc2)=C1 result_type="growth inhibition" experimental_value=-10

Report growth inhibition for every entry below.
1. CCN(CC)CCCC(Nc1c2ccc(Cl)cc2nc2ccc(OC)cc12)c1cccs1 (stereo not drawn)
2. O=[N+]([O-])/C(C(Cl)=C(Cl)Cl)=C(/Nc1ccccc1)Sc1ccccc1
3. CCC(=O)Sc1ccccc1C(=O)Nc1ccc(Cl)cc1
4. O=c1[nH]c(=S)[nH]c(-c2ccccc2)c1Cc1c(O)ccc2ccccc12
5. CC(=O)Nc1ccc2c(c1)C(=O)c1cccc(F)c1-2
6. COC(=O)C(C#N)=C(SC)SC
7. CCS(=O)(=O)/C=C(\C#Cc1ccccc1)c1ccccc1

// result
90
51
22
-15
1
1
11

Report growth inhibition for every entry below.
1. CC(=O)C(=Cc1ccc(C=C(C(C)=O)C(C)=O)cc1)C(C)=O
2. COc1ccc(-c2cscc2N)cc1
3. NC(=O)c1nnn(Cc2cc(Cl)c(C(=O)c3ccc(Cl)cc3)c(Cl)c2)c1N
4. c1ccc(/C(=N\Nc2nc3ccccc3s2)c2ccccn2)cc1
5. O=[N+]([O-])OC1CCCC(O[N+](=O)[O-])c2c1n([O-])c1ccccc1[n+]2=O (stereo not drawn)
6. O=C1C(=O)N(C(=O)c2ccc(Cl)c(Cl)c2)c2ccc(Cl)cc21

// result
-5
-19
5
-6
19
-6

Report growth inhibition for every entry below.
1. CCCCCC/C=C\CCCCCCCCCC1=C(CN2CCN(C)CC2)C(=O)C=C(OC)C1=O
2. OCC(O)C(OC1OC(CO)C(O)C(O)C1O)C(O)C(/C=N/Nc1ccc(Br)cc1)=N/Nc1ccc(Br)cc1 (stereo not drawn)
3. CCOC(=O)C(C(C)=O)C1=C(Cl)C(=O)c2ccccc2C1=O (stereo not drawn)
4. COC(=O)c1ccc(OC)cc1
5. COc1ccc([C@H]2c3cc4c(cc3OC(O)(CO)[C@H]2C(=O)O)OCO4)c(OC)c1 (stereo partly drawn) (tested in a mixture with another compound)
6. CC(C)(C)c1cc(C(O)(C(F)(F)F)C(F)(F)F)c(S)c(C(O)(C(F)(F)F)C(F)(F)F)c1
7. c1ccc2c(c1)C[n+]1ccc3ccccc3c1-c1c3ccccc3cc[n+]1C2
8. O=C(O)/C(Cl)=C(\Cl)C(=O)Nc1cccc(C(F)(F)F)c1

// result
1: 99; 2: 23; 3: 96; 4: 3; 5: -5; 6: 7; 7: -2; 8: 88

* * *

Assay: NCI Yeast Anticancer Drug Screen. Data for the rad50 strain (AID 155);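 note: 0% = growth of vehicle-only cultures of the same strain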
Conditions: S. cerevisiae rad50 strain growth inhibition; at 50.0 µM (retest, dose inferred, filed as 5.0); hits give high values
Protocol: Growth inhibition of yeast strains with defined genetic alterations is measured as a screen for potential anti-cancer activity. Selected strains with alterations in DNA damage repair or cell cycle control were exposed to compounds and growth inhibition was measured relative to vehicle treated controls. The strain used in this assay is rad50
This is part of a sample that, as a whole, favours compounds with a hit. Of some 79,000 tested, about 15% had one in any assay.
Field: growth inhibition. Provide a value for each of the molecules that follow.
Answers are plain numbers, in %.

Look over these answered cases.
molecule=N#CSCCSC#N result_type="growth inhibition" experimental_value=95
molecule=Cc1c(CCl)c(=O)oc2c(C)c3occ(CCl)c(=O)c3cc12 result_type="growth inhibition" experimental_value=12
molecule=O=C(O)CCSSCCCCCS(=O)O result_type="growth inhibition" experimental_value=-4
molecule=Cc1nc(Nc2c(C)cccc2C)c2c(C)c[nH]c2n1 result_type="growth inhibition" experimental_value=2
molecule=Clc1ccc2c(NCCCCCCNc3ccnc4cc(Cl)ccc34)ccnc2c1 result_type="growth inhibition" experimental_value=90

Report growth inhibition for every entry below.
1. O=C(c1ccccc1)c1ccccc1S(=O)(=O)Nc1ccccc1
2. N#CC1Oc2ccccc2N1C(=O)c1ccccc1 (stereo unspecified)
3. COC1C=COC2(C)Oc3c(C)c(O)c4c(O)c(c(C5SCCS5)c(O)c4c3C2=O)NC(=O)/C(C)=C\C=CC(C)C(O)C(C)C(O)C(C)C(OC(C)=O)C1C (stereo unspecified)
4. Nc1c(O)c(Cl)cc(Cl)c1Cl
5. Cc1ccc2nc(C[n+]3ccc4ccccc4c3)ccc2c1
6. COC(=O)c1nc(=S)[nH]c(C(=O)OC)c1C(=O)c1ccc2ccccc2c1

// result
[79, 12, 96, 94, 28, 96]

* * *

Assay: NCI Yeast Anticancer Drug Screen. Data for the rad50 strain (AID 155);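 note: 0% = growth of vehicle-only cultures of the same strain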
Details: S. cerevisiae rad50 strain growth inhibition; at 5.0 µM (retest, dose inferred, filed as 0.5)
Protocol: Growth inhibition of yeast strains with defined genetic alterations is measured as a screen for potential anti-cancer activity. Selected strains with alterations in DNA damage repair or cell cycle control were exposed to compounds and growth inhibition was measured relative to vehicle treated controls. The strain used in this assay is rad50
Compounds without any hit were thinned out: in the full panel of roughly 79,000, 15% have a hit. Activity calls are given as the source filed them. Rule as the data show it: active = growth inhibition above about 70%; inactive = the rest.
A correct response names exactly one class from active, inactive

# count of solved cases: 3
molecule=Cc1cc([N+](=O)[O-])cc(Cl)c1O qualitative_label=inactive
molecule=CC(=O)ON=C1C=CC(=C(C#N)c2ccccc2)C=C1 qualitative_label=inactive
molecule=N#Cc1ccc([N+](=O)[O-])o1 qualitative_label=inactive

// query Fill in: this test's call for CC1=NN(c2nc(N)nc(C(C)Sc3cc(Cl)c(C)cc3S(N)(=O)=O)n2)C(C)(C)C1 (stereo not drawn) is ___
// result inactive

// query Fill in: this test's call for CN(C)CC(CN(C)C)C(=O)c1ccc(Oc2ccccc2)cc1 is ___
// result active

// query Fill in: this test's call for O=C1C=CC(=O)C(Sc2ccccc2)=C1 is ___
// result inactive

* * *

Assay: NCI Yeast Anticancer Drug Screen. Data for the bub3 strain (AID 167)
Conditions: S. cerevisiae bub3 mutant strain, at 50.0 µM
About 79,000 compounds went through this panel and 15% of them were active in at least one assay; those are over-represented in the sample as a whole. Calls of active or inactive are those of the source. Rule as the data show it: active = growth inhibition above about 70%; inactive = the rest.
A correct response names exactly one class from 1 (yes) = active, 0 (no) = inactive

compound=CCCCCCCCSCc1ccc(N)cc1 qualitative_label="1 (yes)"
compound=CCCCN(C)C(=S)N/N=C(\C)c1ccccn1 qualitative_label="1 (yes)"

// query Fill in: this test's call for CN(C)C(=S)/N=c1\ss/c(=N/C(=S)N(C)C)n1-c1ccc([N+](=O)[O-])cc1 is ___
// result 1 (yes)

// query Fill in: this test's call for O=[N+]([O-])c1ccc2c(c1)OCO2 is ___
// result 0 (no)

// query Fill in: this test's call for O=C1C=CC(=O)N1C1c2ccccc2-c2ccccc21 is ___
// result 1 (yes)

// query Fill in: this test's call for CC12CC(Br)(Br)C(=O)C3C1CCCC32 is ___
// result 1 (yes)

* * *

Assay: NCI Yeast Anticancer Drug Screen. Data for the rad50 strain (AID 155);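 note: 0% = growth of vehicle-only cultures of the same strain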
Settings: S. cerevisiae rad50 strain growth inhibition; at 50.0 µM
About 79,000 compounds went through this panel and 15% of them were active in at least one assay; those are over-represented in the sample as a whole. Activity calls are given as the source filed them. Rule as the data show it: active = growth inhibition above about 70%; inactive = the rest.
A correct response names exactly one class from active, inactive

compound=Cn1cc(/C=C/[N+](=O)[O-])c2ccc(OCc3ccccc3)cc21 qualitative_label=inactive
compound=CCN(CC)CCNc1c(C)ccc2cccnc12 qualitative_label=inactive
compound=CN(C)N=Nc1ccc(Cl)c2ncccc12 qualitative_label=inactive
compound=CC(/C=C/c1cccs1)=N\C(=S)NC(N)=S qualitative_label=inactive
compound=Cc1ccc(N)c(Cc2c(O)ccc3ccccc23)c1 qualitative_label=active

// query Fill in: this test's call for CCCN(CCC)CC(O)c1cc(-c2ccccc2)nc2c(Cl)cc(Cl)cc12 (stereo unspecified) is ___
// result active
